System: 786-0
assay: NCI tumour cell line growth inhibition, 48 h
Activity calls are given as the source filed them. Rule as the data show it: active = GI50 up to about 1.1 µM and inactive = higher.
measuredParameter: GI50

compound	measuredParameter	result
CC(=O)Nc1ccc(/C=C2\N=C(c3ccccc3)OC2=O)cc1	GI50	> 100 µM (inactive)
O=C(/C=C/c1ccccc1)Oc1ccc(C(=O)/C=C/c2ccccc2)cc1	GI50	6.53 µM (inactive)
CCOC(=O)N(NC(=O)NC(C)C)c1ccccc1	GI50	> 100 µM (inactive)
Cc1cc(C)c2c(O)cc(-c3cccc4ccccc34)nc2n1	GI50	0.612 µM (active)

Record `NS(=O)(=O)c1nn2c(Br)c(-c3ccccc3)nc2s1` . Reported GI50: 2.45 µM (inactive)

Record `C1CCCCc2nc3c(nc2CCC1)c1nc2c(nc1c1nc4c(nc31)CCCCCCCC4)CCCCCCCC2` . Reported GI50: > 100 µM (inactive)

* * *

System: COLO 205
assay: NCI tumour cell line growth inhibition, 48 h
Active and inactive are the calls of the source. Rule as the data show it: active = GI50 up to about 1.1 µM and inactive = higher.
// allowed return values: active, inactive

Field: outcome | Entry: `Nc1ccc2nc(-c3ccccn3)c(-c3ccccn3)nc2c1`
inactive

Field: outcome | Entry: C=CCOc1ccc(C2(O)c3ccccc3C3=NCCCN32)cc1 (stereo unspecified)
inactive

Field: outcome | Entry: `C=C=C(Sc1ccccc1)C(C)(C)OC(C)=O`
inactive

Field: outcome | Entry: CC1(C)OC2C(COC(c3ccccc3)(c3ccccc3)c3ccccc3)OC(c3c[nH]c4c(N)ncnc34)C2O1 (stereo unspecified)
inactive

Field: outcome | Entry: CC1CCN(C(C)C)P(=S)(Cc2ccccc2)O1 (stereo unspecified)
inactive

Field: outcome | Entry: `N#CCCN(CCC#N)c1ccc(/C=C2\N=C(c3ccccc3)N(c3ccc(C(=O)O)cc3)C2=O)cc1`
inactive

Field: outcome | Entry: CNC(=O)N(CCCCC(NC(C)=O)C(=O)NCc1ccccc1)Cc1ccccc1 (stereo unspecified)
inactive

* * *

System: HOP-62
assay: NCI tumour cell line growth inhibition, 48 h
Active and inactive are the calls of the source. Cut-off read from the data, not from the text of the source: active = GI50 up to about 1.1 µM and inactive = higher.
# GI50 listing for each entry below

Record COc1ccc(C2CC(c3c(C)nn(-c4ccccc4)c3-c3ccc(C)cc3O)=NN2c2ccccc2)cc1 (stereo not drawn) . Reported GI50: > 100 µM (inactive)

Record `Nc1cccc2cc(S(=O)(=O)Nc3ccc(C(=O)O)cc3)ccc12` . Reported GI50: > 100 µM (inactive)

Record `C/C(CC(=O)CCC(=O)Nc1cccc(C(F)(F)F)c1)=N\NC(=O)NN` . Reported GI50: > 100 µM (inactive)

Record `COc1cc(CNc2nc3ccc(C(F)(F)F)cc3nc2-c2ccccc2)cc(OC)c1OC` . Reported GI50: 76.6 µM (inactive)

Record `CCOC(=O)N(NC(=O)NC(C)C)c1ccccc1` . Reported GI50: > 100 µM (inactive)

* * *

System: NCI/ADR-RES
assay: NCI tumour cell line growth inhibition, 48 h
The source made the active and inactive calls. Rule as the data show it: active = GI50 up to about 1.1 µM and inactive = higher.
// allowed return values: active, inactive

Below are worked cases with known answers.
molecule	assignedClass
CC(=O)Nc1cc(CN2CCCCC2)c(O)c2ncccc12	inactive
COc1cc(C2c3cc4c(cc3OC(NNS(=O)(=O)c3ccc(C)cc3)C2C)OCO4)cc(OC)c1OC (stereo unspecified)	inactive
C#CCCCOc1ncccn1	inactive
CC[C@@H](CCCC[C@@H]1CC[C@H]2CC(=O)C[C@@H]12)OC	inactive
O=C1CC(=O)NC(NN2C(=O)/C(=C/c3ccc(Cl)c(Cl)c3)N=C2c2ccccc2)=N1	inactive
COc1ccccc1CC1(O)OC(=O)c2ccccc21 (stereo unspecified)	inactive

Continue with the next molecule.
Field: outcome | Entry: O=C(Cn1c(=O)ccn(C2OC(CO)C(O)C2F)c1=O)c1ccc(F)cc1 (stereo unspecified)
inactive

* * *

System: T47D
assay: NCI tumour cell line growth inhibition, 48 h
Activity calls are given as the source filed them. Cut-off read from the data, not from the text of the source: active = GI50 up to about 1.1 µM and inactive = higher. Starred links: 1 amine or outer side, 2 acyl side, 3 side chain; linkers in the order of their positions; H or OH if unused. Non-standard residues stand in square brackets, D forms with d. Residues, ends and D or L forms follow the SMILES beside them. X41 = CSCCCC(N[*:1])C(=O)[*:2]
measuredParameter: GI50

compound	testTarget	GI50
N#Cc1[nH]c(=O)n(-c2cccc3ccccc23)c1N	T47D	> 10 µM (inactive)
Cc1ccc2c(c1)CN(C(=O)CCC(=O)OCc1ccccc1)c1ccc(C)cc1CN2C(=O)CCC(=O)OCc1ccccc1	T47D	> 100 µM (inactive)

Record `CC12c3c4ccc(C=O)c3Oc3ccc(C=O)c(c31)Oc1ccc(C=O)c(c12)O4` . Reported GI50: > 25 µM (inactive)

Record `CCC(=O)OCc1ccc2oc(=O)c(C(=O)Oc3cncc(Cl)c3)cc2c1` . Reported GI50: 98.6 µM (inactive)

Record `COc1ccc(/C=C2\C(=O)N(C)C(=O)c3cc(OC)c(OC)cc32)cc1OC` . Reported GI50: 24.5 µM (inactive)

Record CSCCCC(NC(=O)CNC(=O)C1CCCN1C(=O)C(Cc1ccc(O)cc1)NC(=O)C(Cc1ccccc1)NC(=O)C(CCCNC(=N)N)NC(=O)C(CC(=O)O)NC(=O)C1CCCN1C(=O)C(CC(=O)O)NC(=O)C1CCCN1C(=O)C1CCCN1C(=O)CN)C(N)=O (configuration not stated) (H-GPPDPDRFYPG[X41]-NH2; configuration not given here) . Reported GI50: > 50 µM (inactive)

Record `CSc1nc2ccccc2c(=O)n1/N=C1\C(=O)N(CN2CCCCC2)c2ccc(Cl)cc21` . Reported GI50: 13.3 µM (inactive)

* * *

Test system: EKVX
assay: NCI tumour cell line growth inhibition, 48 h
Activity calls are given as the source filed them. No stated cut-off is given here; in the data, active = GI50 up to about 1.1 µM and inactive = higher.
measuredParameter: GI50

Some molecules with recorded GI50:
molecule	result
CC(C)N1[C@@H]2CCCC[C@H]2N(C(C)C)[PH]1=O	> 100 µM (inactive)
C[Si](C)(c1ccc(C(=O)O)cc1)c1ccc(C(=O)O)cc1	> 100 µM (inactive)
C/C(C[n+]1ccccc1)=N\N=C(N)N	> 100 µM (inactive)
O=C1NC(N2CCOCC2)=N/C1=C\c1ccc(Cl)cc1	> 100 µM (inactive)

Per the reported EKVX data, O=c1[nH]c(N/N=C\C(O)C(O)C(O)C(O)CO)nc2ccccc12 (stereo unspecified) has GI50 of > 100 µM (inactive)

Per the reported EKVX data, `N#Cc1[nH]c(=O)n(-c2cccc3ccccc23)c1N` has GI50 of > 10 µM (inactive)

* * *

# GI50 listing for each entry below
System: NCI-H522
assay: NCI tumour cell line growth inhibition, 48 h
Calls of active or inactive are those of the source. No stated cut-off is given here; in the data, active = GI50 up to about 1.1 µM and inactive = higher.

compound	GI50
NS(=O)(=O)c1ccc(/N=N/c2ccc(O)c(C(=O)O)c2)cc1 [SALAZOSULFAMIDE]	82.4 µM (inactive)
Clc1ccc(C2=NOC(C3CCCCC3)C2)cc1 (stereo not given)	> 100 µM (inactive)
CC(=O)NNc1nc(C)c(C(=O)/C=C/c2ccc(N(C)C)cc2)s1	> 100 µM (inactive)

Record `CC(=O)N(N=O)c1ccc(N(N=O)C(C)=O)cc1` . Reported GI50: > 100 µM (inactive)

Record `CCOC(=O)[C@H]1CSC[C@@H](C(=O)OC)N1` . Reported GI50: > 100 µM (inactive)

Record COC(=O)C1(NC(=O)C(CC(=O)OCc2ccccc2)NC(=O)OCc2ccccc2)CCCCCC1 (stereo not given) . Reported GI50: 69.3 µM (inactive)

Record CC(=O)OCC1OC(n2c(=O)n(-c3ccccc3)c(=O)c3ccccc32)C(OC(C)=O)C(OC(C)=O)C1OC(C)=O (stereo not given) . Reported GI50: > 100 µM (inactive)

Record `CCN(CC)c1c(C(=O)/C=C/c2ccc(Cl)cc2)c(-c2ccccc2)nn(C)c1=O` . Reported GI50: 1.59 µM (inactive)

Record CC(Cc1ccccc1)NC1=NCCO1 (stereo not given) . Reported GI50: 59.6 µM (inactive)

Record `CCCCNC(=S)c1ccc(OC(=O)Nc2ccc(Cl)cc2)cc1` . Reported GI50: 24.5 µM (inactive)

* * *

Test system: MDA-N
assay: NCI tumour cell line growth inhibition, 48 h
Activity calls are given as the source filed them. Rule as the data show it: active = GI50 up to about 1.1 µM and inactive = higher.
measuredParameter: GI50

Some compounds with recorded GI50:
compound	testTarget	GI50
Nc1ccc2nc(-c3ccccn3)c(-c3ccccn3)nc2c1	MDA-N	> 100 µM (inactive)
CC(=O)N1CC(C)(C)c2c1cc(C)c(O)c2C	MDA-N	> 100 µM (inactive)
OCC(S)CS.[Bi] (stereo unspecified)	MDA-N	14.1 µM (inactive)
N#Cc1[nH]c(=O)n(-c2cccc3ccccc23)c1N	MDA-N	> 10 µM (inactive)
CC(=O)OCC1OC(N2C(c3ccccc3)=CC(c3ccco3)C(C#N)=C2S)C(OC(C)=O)C(OC(C)=O)C1OC(C)=O (stereo unspecified)	MDA-N	11.3 µM (inactive)
CCn1c2ccc(O)c(C(=O)OC)c2c2cc3ccccc3c(O)c21	MDA-N	20.5 µM (inactive)

Record CC[n+]1c(-c2ccccc2)c2cc(N)ccc2c2ccc(N)cc21 [HOMIDIUM BROMIDE] . Reported GI50: 4.2 µM (inactive)
